System: Human immunodeficiency virus 1
ASSAY NOTES: Antiviral activity against HIV1 subtype C harboring protease L23I, M46I/M, L89T mutant gene and polymorphism at M36 position infected in human cord blood mononuclear cells assessed as inhibition of viral replication […]
Assay type: functional, organism-based
TEST SETTINGS: Human immunodeficiency virus 1, subtype C
MEASURED PARAMETER: pEC50
# pEC50 = -log10(concentration in molar units)

Ask | Please list pEC50 recorded for the compound COC(=O)N[C@H](C(=O)N[C@@H](Cc1ccccc1)[C@@H](O)CN(Cc1ccc(-c2ccccn2)cc1)NC(=O)[C@@H](NC(=O)OC)C(C)(C)C)C(C)(C)C [ATAZANAVIR]
Reply | 7.06
